Entry source: patent US7612163B1

Target desc: T1, human prokineticin receptor 1 (PKR1) (human, UniProt Q8TCW9 1-393)
T1 construct: whole, on cells
T1 sequence (Q8TCW9 whole entry): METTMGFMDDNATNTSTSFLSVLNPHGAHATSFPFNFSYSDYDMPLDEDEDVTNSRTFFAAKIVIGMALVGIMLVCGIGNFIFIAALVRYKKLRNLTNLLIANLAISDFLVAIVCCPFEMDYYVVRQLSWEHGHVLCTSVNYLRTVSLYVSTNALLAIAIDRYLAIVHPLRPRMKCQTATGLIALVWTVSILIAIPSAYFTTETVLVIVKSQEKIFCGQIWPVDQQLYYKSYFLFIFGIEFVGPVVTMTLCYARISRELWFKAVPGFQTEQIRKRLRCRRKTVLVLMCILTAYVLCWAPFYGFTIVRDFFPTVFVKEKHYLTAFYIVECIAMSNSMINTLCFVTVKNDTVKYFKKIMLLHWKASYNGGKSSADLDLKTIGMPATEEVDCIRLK
Assay method text: radioligand competition against 100 pM 125I-PK2-f on COS-7 cells expressing PKR1
Ends that are not written are not given here.
Record form. Attribute: pIC50. Fill in for each entry.
Reminder that pIC50 is minus the log10 of a molar concentration.

pIC50 for human prokineticin 2 (PK2) (ligand, Made in COS-7 cells with an N-terminal FLAG tag that was removed with enterokinase, then HPLC purified; also called mammalian Bv8) AVITGACDKDSQCGGGMCCAVSIWVKSIRICTPMGKLGDSCHPLTRKVPFFGRRMHHTCPCLPGLACLRTSFNRFICLAQK is 8.35

pIC50 for human prokineticin 1 (PK1) mature peptide (ligand, UniProt P58294 20-105, looked up, mature; also called EG-VEGF) AVITGACERDVQCGAGTCCAISLWLRGLRMCTPLGREGEECHPGSHKVPFFRKRKHHTCPCLPNLLCSRFPDGRYRCSMDLKNINF is 7.56

pIC50 for human PK2β mature peptide (ligand, ends and bridges not checked; cysteine pairing not given here, Proteolytically processed form of PK2L secreted by COS-7 cells; The FLAG tag was removed with enterokinase; also called processed product of PK2L) AVITGACDKDSQCGGGMCCAVSIWVKSIRICTPMGKLGDSCHPLTRKNNFGNGRQE is 7.46
